Please respond with reported pIC50 for every item in the list.
# TARGET UNDER TEST: mPGES-1 (Homo sapiens (Human))
# Sequence (O14684 whole entry): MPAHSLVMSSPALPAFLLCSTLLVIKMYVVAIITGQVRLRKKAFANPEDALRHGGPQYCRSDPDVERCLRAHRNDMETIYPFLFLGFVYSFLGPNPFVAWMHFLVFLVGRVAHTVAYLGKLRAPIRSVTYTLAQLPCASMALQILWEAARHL
# METHOD: A549 cell-based assay (PGE2 formation, IL-1β stimulated, 50% human serum)
# CONDITION LABEL: A549 cells, IL-1β 5 ng/ml, read-out: mPGES-1 inhibitory effect in the cell assay, IC50
pIC50: −log10 of the molar value.

Below, 2 molecules whose answers are already recorded.
MOLECULE: Cn1c(Nc2c(Cl)ccc(CNC(=O)C(C)(C)C)c2Cl)nc2cc(C(=O)Nc3ccc(Cl)c(F)c3)c(OCC(F)F)cc21 [Example 45]
pIC50: > 9.00
--
MOLECULE: Cn1c(Nc2c(Cl)ccc(CNC(=O)C(C)(C)C)c2Cl)nc2cc(C(=O)Nc3ccc(F)c(Cl)c3)c(OCCF)cc21 [Example 177]
pIC50: > 9.00

Need pIC50 of CC(C(=O)NCc1ccc(Cl)c(Nc2nc3cc(C(=O)Nc4ccc(F)c(Cl)c4)c(OCC(F)F)cc3n2C)c1Cl)C(F)(F)F (stereo not drawn) [Example 141] , thanks.
> 9.00
